Hello, the source for this data is ChEMBL document CHEMBL1152361, in case you need it.

- Test system: Hepatitis C virus
- EXPERIMENT_SUMMARY: Antiviral activity against HCV Con1 GT1b by replicon assay
- Type: functional, organism-based, Hepacivirus hominis
MEASURED_ATTRIBUTE: EC50 (µM)

Field: example entries. Status: answers known.
C[C@H](NP(=O)(OC[C@@]1(N=[N+]=[N-])O[C@@H](n2ccc(N)nc2=O)[C@H](O)[C@@H]1O)Oc1ccc2ccccc2c1)C(=O)OCc1ccccc1 (single isomer, unassigned; diastereomer 1)    4.3
C[C@H](NP(=O)(OC[C@@]1(N=[N+]=[N-])O[C@@H](n2ccc(N)nc2=O)[C@H](O)[C@@H]1O)Oc1cccc2ccccc12)C(=O)OCc1ccccc1 (some centres undefined)    0.95

I. CC(C)OC(=O)CNP(=O)(OC[C@@]1(N=[N+]=[N-])O[C@@H](n2ccc(N)nc2=O)[C@H](O)[C@@H]1O)Oc1ccccc1 (some centres undefined)
II. CC(C)OC(=O)CNP(=O)(OC[C@@]1(N=[N+]=[N-])O[C@@H](n2ccc(N)nc2=O)[C@H](O)[C@@H]1O)Oc1ccccc1 (single isomer, unassigned; Diastereomer 1)
Exam item: Compare EC50: is it lower for I or for II ? Returns: label corresponding to the selected item.
Marked response: I

###

- Test system: Hepatitis C virus
- EXPERIMENT_SUMMARY: Antiviral activity against HCV Con1 GT1b by replicon assay
- Format: functional, organism-based, Hepacivirus hominis
- CONDITION_CONTEXT: Hepatitis C virus, Con1 GT1b
MEASURED_ATTRIBUTE: EC50 (nM)
Response body: numeric value in nM, unit text excluded.

CCC(C)OC(=O)[C@H](C)NP(=O)(OC[C@@]1(N=[N+]=[N-])O[C@@H](n2ccc(N)nc2=O)[C@H](O)[C@@H]1O)Oc1ccccc1 (stereo partly specified)    620
CCOC(=O)[C@H](Cc1ccccc1)NP(=O)(OC[C@@]1(N=[N+]=[N-])O[C@@H](n2ccc(N)nc2=O)[C@H](O)[C@@H]1O)Oc1ccccc1 (stereo partly specified)    11000

Exam item: What value of EC50 on Hepatitis C virus does CCOC(=O)[C@H](C)NP(=O)(OC[C@@]1(N=[N+]=[N-])O[C@@H](n2ccc(N)nc2=O)[C@H](O)[C@@H]1O)Oc1ccc(C)cc1 (stereo partly specified) have?
Marked response: 2900

Exam item: What value of EC50 on Hepatitis C virus does CCOC(=O)[C@H](CC(C)C)NP(=O)(OC[C@@]1(N=[N+]=[N-])O[C@@H](n2ccc(N)nc2=O)[C@H](O)[C@@H]1O)Oc1ccc(Cl)cc1 (stereo partly specified) have?
Marked response: 2500

###

- System: Hepatitis C virus
- EXPERIMENT_SUMMARY: Antiviral activity against HCV Con1 GT1b by replicon assay
- Assay type: functional, organism-based, Hepacivirus hominis
- CONDITION_CONTEXT: Hepatitis C virus, Con1 GT1b
MEASURED_ATTRIBUTE: EC50 (µM)

CCOC(=O)[C@H](CC(C)C)NP(=O)(OC[C@@]1(N=[N+]=[N-])O[C@@H](n2ccc(N)nc2=O)[C@H](O)[C@@H]1O)Oc1ccc(OC)cc1 (stereo partly specified)    9.3
CCCCCCCCCCCCOC(=O)[C@@H](C)NP(=O)(OC[C@@]1(N=[N+]=[N-])O[C@@H](n2ccc(N)nc2=O)[C@H](O)[C@@H]1O)Oc1ccccc1 (stereo partly specified)    30
C[C@H](NP(=O)(OC[C@@]1(N=[N+]=[N-])O[C@@H](n2ccc(N)nc2=O)[C@H](O)[C@@H]1O)Oc1ccccc1)C(=O)OC(C)(C)C (stereo partly specified)    0.72
C[C@H](NP(=O)(OC[C@@]1(N=[N+]=[N-])O[C@@H](n2ccc(N)nc2=O)[C@H](O)[C@@H]1O)Oc1cccc(Cl)c1)C(=O)OCc1ccccc1 (stereo partly specified)    3.7

A. C[C@H](NP(=O)(OC[C@@]1(N=[N+]=[N-])O[C@@H](n2ccc(N)nc2=O)[C@H](O)[C@@H]1O)Oc1ccccc1Cl)C(=O)OCc1ccccc1 (stereo partly specified)
B. C[C@H](NP(=O)(OC[C@@]1(N=[N+]=[N-])O[C@@H](n2ccc(N)nc2=O)[C@H](O)[C@@H]1O)Oc1ccc(Cl)cc1)C(=O)OCc1ccccc1 (stereo partly specified)
Exam item: Compare EC50: is it lower for A or for B ? Returns: label corresponding to the selected item.
Marked response: A

###

- Test system: Hepatitis C virus
- EXPERIMENT_SUMMARY: Antiviral activity against HCV Con1 GT1b by replicon assay
- Type: functional, organism-based, Hepacivirus hominis
- CONDITION_CONTEXT: Hepatitis C virus, Con1 GT1b
pEC50: −log10 of the molar value.
MEASURED_ATTRIBUTE: pEC50

Field: example entries. Status: answers known.
CC(C)OC(=O)C(C)(C)NP(=O)(OC[C@@]1(N=[N+]=[N-])O[C@@H](n2ccc(N)nc2=O)[C@H](O)[C@@H]1O)Oc1ccccc1 (some centres not stated)    5.51
CCOC(=O)[C@H](CCSC)NP(=O)(OC[C@@]1(N=[N+]=[N-])O[C@@H](n2ccc(N)nc2=O)[C@H](O)[C@@H]1O)Oc1ccccc1 (some centres not stated)    4.74
CC(C)OC(=O)[C@H](C)NP(=O)(OC[C@@]1(N=[N+]=[N-])O[C@@H](n2ccc(N)nc2=O)[C@H](O)[C@@H]1O)Oc1ccccc1 (some centres not stated)    6.00
CCOC(=O)[C@H](CC(C)C)NP(=O)(OC[C@@]1(N=[N+]=[N-])O[C@@H](n2ccc(N)nc2=O)[C@H](O)[C@@H]1O)Oc1ccc(Cl)c(Cl)c1 (some centres not stated)    5.64
C[C@H](NP(=O)(OC[C@@]1(N=[N+]=[N-])O[C@@H](n2ccc(N)nc2=O)[C@H](O)[C@@H]1O)Oc1cccc2ccccc12)C(=O)OCc1ccccc1 (single isomer, unassigned; diastereomer 2)    5.92

a. Cc1ccc(OP(=O)(N[C@@H](C)C(=O)OCc2ccccc2)OC[C@@]2(N=[N+]=[N-])O[C@@H](n3ccc(N)nc3=O)[C@H](O)[C@@H]2O)cc1 (some centres not stated)
b. C[C@H](NP(=O)(OC[C@@]1(N=[N+]=[N-])O[C@@H](n2ccc(N)nc2=O)[C@H](O)[C@@H]1O)Oc1ccccc1)C(=O)Oc1ccccc1 (some centres not stated)
Exam item: Between the entries labelled a and b , which has a larger pEC50 value on record? Returns: label corresponding to the selected item.
Marked response: a
(a: 6.29, b: 5.54)

###

- Tested on: Hepatitis C virus
- EXPERIMENT_SUMMARY: Antiviral activity against HCV Con1 GT1b by replicon assay
- Type: functional, organism-based, Hepacivirus hominis
- CONDITION_CONTEXT: Hepatitis C virus, Con1 GT1b
pEC50: −log10 of the molar value.
MEASURED_ATTRIBUTE: pEC50

Field: example entries. Status: answers known.
C[C@H](NP(=O)(OC[C@@]1(N=[N+]=[N-])O[C@@H](n2ccc(N)nc2=O)[C@H](O)[C@@H]1O)Oc1ccccc1)C(=O)OCc1ccccc1 (some centres undefined)    5.22
[N-]=[N+]=N[C@]1(COP(=O)(NCC(=O)OCc2ccccc2)Oc2ccccc2)O[C@@H](n2ccc(N)nc2=O)[C@H](O)[C@@H]1O (some centres undefined)    5.68

I. [N-]=[N+]=N[C@]1(CO)O[C@@H](n2ccc(N)nc2=O)[C@H](O)[C@@H]1O
II. CCOC(=O)[C@H](C)NP(=O)(OC[C@@]1(N=[N+]=[N-])O[C@@H](n2ccc(N)nc2=O)[C@H](O)[C@@H]1O)Oc1c(OC)cccc1OC (some centres undefined)
Exam item: Compare pEC50: is it lower for I or for II ? Returns: label corresponding to the selected item.
Marked response: II

###

Item-by-item account of EC50
- Tested on: Hepatitis C virus
- EXPERIMENT_SUMMARY: Antiviral activity against HCV Con1 GT1b by replicon assay
- Format: functional, organism-based, Hepacivirus hominis
- CONDITION_CONTEXT: Hepatitis C virus, Con1 GT1b
Response body: numeric value in µM, unit text excluded.

Field: example entries. Status: answers known.
CCOC(=O)[C@@H](C)NP(=O)(OC[C@@]1(N=[N+]=[N-])O[C@@H](n2ccc(N)nc2=O)[C@H](O)[C@@H]1O)Oc1ccccc1 (stereo not given in full)    2.3
CC(C)(NP(=O)(OC[C@@]1(N=[N+]=[N-])O[C@@H](n2ccc(N)nc2=O)[C@H](O)[C@@H]1O)Oc1ccccc1)C(=O)OCc1ccccc1 (stereo not given in full)    9.2
COC(=O)[C@H](C)NP(=O)(OC[C@@]1(N=[N+]=[N-])O[C@@H](n2ccc(N)nc2=O)[C@H](O)[C@@H]1O)Oc1ccccc1 (stereo not given in full)    3.1

Exam item: Which EC50 is reported for this compound? C[C@@H](NP(=O)(OC[C@@]1(N=[N+]=[N-])O[C@@H](n2ccc(N)nc2=O)[C@H](O)[C@@H]1O)Oc1ccccc1)C(=O)OCc1ccccc1 (stereo not given in full)
Marked response: 2.2
